# credit: ChEMBL document CHEMBL3507680

test: Human HepG2 cell viability assay in 384 well format; format: toxicity, cell-based; design: dose 125 nL, time 70.5 hour; concentration not given beside the values; details: HepG2 cells, read-out: Inhibition
measurement kind: cytotoxicity at 70.5 h (%)
Form entry: value (%) — number only.

A selection of reference data follows.
COC(=O)CCc1c(C)nc2cc(O)nn2c1C | -2.64
Cc1cc(C(=O)N2C[C@@H]3COC[C@]3(CN(C)C)C2)sc1C | -11.8
CCc1ncncc1C(=O)NCCN1CCC(C)CC1 | -4.63

Output cytotoxicity at 70.5 h of Cn1cc(CNC2CCc3c(ccc(=O)n3C)C2)cn1 (centres undefined)
-2.72

Output cytotoxicity at 70.5 h of CCCS(=O)(=O)N1CCc2nc(N3CCOCC3)nc(N(C)C)c2C1
26.5

Output cytotoxicity at 70.5 h of c1cncc(CN2CCc3ncnc(C4CCOC4)c3CC2)c1 (centres undefined)
22.8

Output cytotoxicity at 70.5 h of Cc1nc(C#N)c(N2CCC(c3nc(-c4ccccc4)no3)CC2)o1
-4.24

Output cytotoxicity at 70.5 h of NC(=O)C1CCN(C(=O)c2ccn(-c3cccc(F)c3)n2)C1 (centres undefined)
-19.8

Output cytotoxicity at 70.5 h of CS(=O)(=O)N1CCCC(Cc2cnc(Br)cn2)C1 (centres undefined)
22.6

Output cytotoxicity at 70.5 h of Cc1cc(C)n(CC(C)NC2CCN(Cc3cccnc3)CC2)n1 (centres undefined)
-7.19

Output cytotoxicity at 70.5 h of O=C(NC1CC1)[C@H]1C[C@H]2OCC[C@H]2N(Cc2cccnc2)C1
-7.68

Output cytotoxicity at 70.5 h of Cc1cn2c(=O)c(-c3ccnc(N[C@@H](C)CO)n3)cnc2s1
-5.83

Output cytotoxicity at 70.5 h of COc1cnc(N2C[C@@H](CN3CCOCC3)C[C@H](CO)C2)nc1
-2.56

Output cytotoxicity at 70.5 h of CN1CC2(CCCN(Cc3ccccc3OCC(=O)O)C2)OC1=O (centres undefined)
-2.41

Output cytotoxicity at 70.5 h of CC(C)N(C)CC(=O)NC1CCc2nccn2C1 (centres undefined)
17.3
